propertyMeasured: pKd
Please express pKd as -log10 of the molar concentration.

Input: Using UniProt:P25440 as the test system, report measured pKd of COc1ccccc1S(=O)(=O)Nc1ccc2c(c1)CN(C)C(=O)N2 .
Output: 6.95

====

# studySystem: BRD2(2) (Homo sapiens)
# Sequence (P25440 344-455 limits assumed): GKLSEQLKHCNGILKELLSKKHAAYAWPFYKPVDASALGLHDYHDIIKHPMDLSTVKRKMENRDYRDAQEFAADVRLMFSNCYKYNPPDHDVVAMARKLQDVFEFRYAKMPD
propertyMeasured: IC50 (nM)
Record the value in nM, omitting the unit from your answer.

Input: Return the recorded IC50 value; entry: COc1ccccc1S(=O)(=O)Nc1ccc2c(c1)CN(C)C(=O)N2 [PFI-1]
Output: 98
